Where do these numbers come from? They come from the supplement of paper PMC9170038.

Test system: K4 kissing-loop RNA reporter
Experiment: apparent KD of K4 kissing-loop reporter; higher = weaker reporter binding
Conditions: Eterna round: R107; input ligand: arginine 13.2 mM
Label fulfilled for high-side apparent KD of K4 kissing-loop reporter (at or above 200 nM) and not fulfilled for low-side apparent KD of K4 kissing-loop reporter (below it).

# example entries with known answers
{"columns": ["biosequence", "qualitative_label"],
 "data": [
  ["UGUGGAGAAUAUGAUACCAGCAGUGAGAGAGAGGAAGUAUAGUGAUGUUAUAUGAGAGAAUGCCCUUGGCAGCAUAUGAAGAAGG [SSTheophylB.E]", "not fulfilled"],
  ["GAUUAAUAAGAGGAUACCAGUACUAAUAAAGUACAUUAAUAGUAGAGUGAUGUUCUAAAGUACCCUUGGCAGCUUAGAGUAAGUU [#08 K4 Theophylline B Exclusion]", "fulfilled"],
  ["UAAUCACUCGAACUGCAAGUACGAGUGGAACGAGGACCGGUACGGCCGCCACUCGAUAACUUGCAGUGAUGUUGCAAGUAAGAAU [(T)''-(K)'-(T)'-(T1)-(T2)-(K1)-(K2)_Design7]", "not fulfilled"]
]}

Now consider a different sequence.
Given ACUAUGGAGUGAUGUUCCCGCGUCAUUGAUACCAGAAUGUAUACCUUCCCUUGGCAGCAAUUCAUCGCACGUAUACUUAUACAAG [theeternabot_sameState_KL_Theo_A_31] , state whether its apparent KD of K4 kissing-loop reporter is at least 200 nM.
fulfilled

====

Tested on: K4 kissing-loop RNA reporter;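 note: bound reporter read as fluorescence of individual clusters on recovered sequencing chips by microscopy, with normalized cluster intensities fitted with a binding model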
Test: apparent KD of K4 kissing-loop reporter; higher = weaker reporter binding
Conditions: Eterna round: R107; input ligand: none
Label condition met for high-side apparent KD of K4 kissing-loop reporter (at or above 200 nM) and condition not met for low-side apparent KD of K4 kissing-loop reporter (below it).

{"columns": ["biosequence", "qualitative_label"],
 "data": [
  ["UGUGAGCUGUCGACAAAAGUCGACUAAAAUGAGGAUAUGACGAAAGUCAGAAGGCAUCAAUAAUGGAGUGAUGUUCCUGCUCACU [FmnA 9 U30+A56]", "condition met"],
  ["GGGAGAAGUGCGGCCGCCACUGAGAAAGAAGAAGAAUAUAGUGAUGUUAUAUAGGAAAGGAAGAACAGGACCGGGCAUAAGAGGG [SSTryptB.A]", "condition not met"],
  ["AAAGUCGGCUGUGAUACCAGUCAUAUAACAACAUAUCGCAGUGAUGUUGCGAGAUAGGAUGACCCUUGGCAGCACUCAGUACGAU [Same State Theophylline B GF 6]", "condition met"],
  ["GGAUAGGAUAGAGGAUAUGGCUUAUGCAGAAAUAACUUAUUGUGUAAAUCCAUAGGGAGUGAUGUUCCAGAAGGCUGUCCUAUCG [MatMod 16 - Jieux - Exclusion - FMN B]", "condition met"],
  ["AUUUUGGUUGAAGGAUAUUCUCCCAUCGACGCGAUAAGAUACUUUGGAAGGUUUGCAGUGAUGUUGGAAGAAGGUCAAAGUUGUA [theeternabot_exclusion_KL_FMN_B_22]", "condition met"]
]}

Now consider a different sequence.
Given AUAUGCAGGAGAAGGAGCGUCGUUUCAAGUGAUGUUUGCAAGCGAGCUUACUAUAUAAGACGACAGGUAGGUCGCUCCUGCGUAA [#06 K4 Arginine B Exclusion] , state whether its apparent KD of K4 kissing-loop reporter is at least 200 nM.
condition not met
